Test system: SEM cells
Assay: cell viability relative to DMSO control; higher = less cytotoxic
Details: RPMI 5 mM glucose + 10% FBS; 48 h; 15.4 µM
Exam item: assign 1 (yes) to entries whose cell viability is below 90% and 0 (no) to entries at or above 90%. Note that a value of exactly 90% receives 0 (no).

| compound | cat |
| --- | --- |
| Cc1ccccc1C(C(=O)NC1CCCCC1)N(C(=O)CNc1ccc(C#N)cc1)c1cccc(F)c1 (stereo not given) | 0 (no) |
| c1ccc2c(Oc3nc(Nc4ccc(N5CCOCC5)cc4)c4ncn(C5CCCCC5)c4n3)cccc2c1 | 0 (no) |
| CC1(C)O[C@H]2CC(=O)OC[C@]23[C@H]2CC[C@@]4(C)[C@H](c5ccoc5)OC(=O)[C@H]5O[C@]54[C@]2(C)C(=O)C[C@@H]13 | 1 (yes) |
| Cc1ccc(F)c(NC(=O)Nc2ccc(-c3cccc4[nH]nc(N)c34)cc2)c1 | 1 (yes) |

====

Readings of cell viability for the listed molecules
System: P12-Ichikawa
Test: cell viability relative to DMSO control; higher = less cytotoxic
Conditions: HPLM + 10% dialyzed FBS; 48 h; 0.0211 µM
observation.type: cell viability (%)

| molecule | observation.type | reading |
| --- | --- | --- |
| Cc1cc(SCc2sc(-c3ccc(C(F)(F)F)c(F)c3)nc2C)ccc1OCC(=O)O | cell viability | 92.4 |
| CCC(=O)O[C@@]1([C@H](C)C[C@H]2[C@@H]3C[C@H](F)\C4=C\C(=O)\C=C/[C@]4(C)[C@@]3(F)[C@@H](O)C[C@]12C)C(=O)SCF | cell viability | 75.6 |
| CCOC(=O)c1ncn2c1CN(C)C(=O)c1cc(F)ccc1-2 | cell viability | 117 |
| Cc1ccc(F)c(NC(=O)Nc2ccc(-c3cccc4[nH]nc(N)c34)cc2)c1 | cell viability | 112 |
| CC1(C)CC(=O)c2c(C(F)(F)F)nn(-c3ccc(C(N)=O)c(NC4CCC(OC(=O)CN)CC4)c3)c2C1 (configuration not stated) | cell viability | 96.5 |
| CNC(=O)c1c(F)cccc1Nc1nc(Nc2cc3c(cc2OC)CCN3C(=O)CN(C)C)nc2[nH]ccc12 | cell viability | 110 |
| COc1ccc(CCC(=O)Nc2nc3ccc(Cl)cc3s2)cc1OC | cell viability | 112 |

====

Tested on: P12-Ichikawa
Assay: cell viability relative to DMSO control; higher = less cytotoxic
Settings: RPMI 5 mM glucose + 10% FBS; 48 h; 46.1 µM
observation.type: cell viability (%)

| cpd.smiles | observation.type | measurement.units | reading |
| --- | --- | --- | --- |
| CCC1=C(C)CN(C(=O)NCCc2ccc(S(=O)(=O)NC(=O)N[C@H]3CC[C@H](C)CC3)cc2)C1=O | cell viability | % | 115 |
| COc1ccc([C@@H]2CNC(=O)C2)cc1OC1CCCC1 | cell viability | % | 108 |
| CC1(C)OC/2=C(\[C@H](NCC3=CC=CC=C3)[C@@H]1O)C(=O)C4=CC=CC=C4C2=O | cell viability | % | 6.26 |
| Cl.Cl.Fc1ccc(C(OCCN2CCN(CCCc3ccccc3)CC2)c2ccc(F)cc2)cc1 | cell viability | % | 73.9 |
| CCc1cc(/C(C)=N/OCc2ccc(C3CCCCC3)c(C(F)(F)F)c2)ccc1CN1CC(C(=O)O)C1 | cell viability | % | 18.7 |
| O=C(NC1CC1)c1cccc(-c2ccc3c(NC(=O)C4CC4)n[nH]c3c2)c1 | cell viability | % | 12.6 |
